System: HIV-1Ba-L
Procedure Details: Drug combination studies, p24 inhibition in HIV-infected PBL, median-effect / combination index (CalcuSyn)
Assay type: cell-based
Applied Conditions: Human immunodeficiency virus 1, 120 h, 5 days, single drug within the BLM-ritonavir combination experiment, read-out: IC50 (p24-antigen inhibition)
Endpoint: pIC50
The value called pIC50 is obtained by taking minus log10 of the concentration in mol/L.

Query string: Missing value: pIC50, HIV-1Ba-L, entry CC(C)c1nc(CN(C)C(=O)N[C@H](C(=O)N[C@@H](Cc2ccccc2)C[C@H](O)[C@H](Cc2ccccc2)NC(=O)OCc2cncs2)C(C)C)cs1 . Fill in?
Result string: 7.40
